assay: Pharmacokinetic experiment in cannulated Sprague-Dawley rats (PO and IV); assay type: in vivo; conditions: rat, PO, 10 mg/kg, plasma, read-out: AUC PO (10 mg/kg) (converted)
Each entry below lists one item and its recorded AUC value.

[[record]]
compound = "NC(=O)c1cccc(-c2cccc(OC(=O)NC3CCCCC3)c2)c1 [[drawing 135] comparison compound, reference compound]"
value_measured = "446 ng·h/mL"


State its AUC: NC(=O)c1cccc(-c2cccc(OC(=O)NC3CCC3)c2)c1 [[drawing 131] comparison compound, reference compound]
1160 ng·h/mL

Tell me AUC reported for NS(=O)(=O)c1cccc(-c2cccc(OC(=O)NC3CCCCC3)c2)c1 [[drawing 129] comparison compound, reference compound]
502 ng·h/mL

Supply measured AUC of NC(=O)c1cccc(-c2cc(OC(=O)NC3CCC3)ccc2F)c1 in your reply.
1310 ng·h/mL
